Target Or System: recombinant human NaV1.8 stably transfected HEK cells (Homo sapiens, UniProt Q9Y5Y9)
Construct: expressed in transfected cells; host or cells: HEK cells, stably transfected
Sequence (Q9Y5Y9 whole entry): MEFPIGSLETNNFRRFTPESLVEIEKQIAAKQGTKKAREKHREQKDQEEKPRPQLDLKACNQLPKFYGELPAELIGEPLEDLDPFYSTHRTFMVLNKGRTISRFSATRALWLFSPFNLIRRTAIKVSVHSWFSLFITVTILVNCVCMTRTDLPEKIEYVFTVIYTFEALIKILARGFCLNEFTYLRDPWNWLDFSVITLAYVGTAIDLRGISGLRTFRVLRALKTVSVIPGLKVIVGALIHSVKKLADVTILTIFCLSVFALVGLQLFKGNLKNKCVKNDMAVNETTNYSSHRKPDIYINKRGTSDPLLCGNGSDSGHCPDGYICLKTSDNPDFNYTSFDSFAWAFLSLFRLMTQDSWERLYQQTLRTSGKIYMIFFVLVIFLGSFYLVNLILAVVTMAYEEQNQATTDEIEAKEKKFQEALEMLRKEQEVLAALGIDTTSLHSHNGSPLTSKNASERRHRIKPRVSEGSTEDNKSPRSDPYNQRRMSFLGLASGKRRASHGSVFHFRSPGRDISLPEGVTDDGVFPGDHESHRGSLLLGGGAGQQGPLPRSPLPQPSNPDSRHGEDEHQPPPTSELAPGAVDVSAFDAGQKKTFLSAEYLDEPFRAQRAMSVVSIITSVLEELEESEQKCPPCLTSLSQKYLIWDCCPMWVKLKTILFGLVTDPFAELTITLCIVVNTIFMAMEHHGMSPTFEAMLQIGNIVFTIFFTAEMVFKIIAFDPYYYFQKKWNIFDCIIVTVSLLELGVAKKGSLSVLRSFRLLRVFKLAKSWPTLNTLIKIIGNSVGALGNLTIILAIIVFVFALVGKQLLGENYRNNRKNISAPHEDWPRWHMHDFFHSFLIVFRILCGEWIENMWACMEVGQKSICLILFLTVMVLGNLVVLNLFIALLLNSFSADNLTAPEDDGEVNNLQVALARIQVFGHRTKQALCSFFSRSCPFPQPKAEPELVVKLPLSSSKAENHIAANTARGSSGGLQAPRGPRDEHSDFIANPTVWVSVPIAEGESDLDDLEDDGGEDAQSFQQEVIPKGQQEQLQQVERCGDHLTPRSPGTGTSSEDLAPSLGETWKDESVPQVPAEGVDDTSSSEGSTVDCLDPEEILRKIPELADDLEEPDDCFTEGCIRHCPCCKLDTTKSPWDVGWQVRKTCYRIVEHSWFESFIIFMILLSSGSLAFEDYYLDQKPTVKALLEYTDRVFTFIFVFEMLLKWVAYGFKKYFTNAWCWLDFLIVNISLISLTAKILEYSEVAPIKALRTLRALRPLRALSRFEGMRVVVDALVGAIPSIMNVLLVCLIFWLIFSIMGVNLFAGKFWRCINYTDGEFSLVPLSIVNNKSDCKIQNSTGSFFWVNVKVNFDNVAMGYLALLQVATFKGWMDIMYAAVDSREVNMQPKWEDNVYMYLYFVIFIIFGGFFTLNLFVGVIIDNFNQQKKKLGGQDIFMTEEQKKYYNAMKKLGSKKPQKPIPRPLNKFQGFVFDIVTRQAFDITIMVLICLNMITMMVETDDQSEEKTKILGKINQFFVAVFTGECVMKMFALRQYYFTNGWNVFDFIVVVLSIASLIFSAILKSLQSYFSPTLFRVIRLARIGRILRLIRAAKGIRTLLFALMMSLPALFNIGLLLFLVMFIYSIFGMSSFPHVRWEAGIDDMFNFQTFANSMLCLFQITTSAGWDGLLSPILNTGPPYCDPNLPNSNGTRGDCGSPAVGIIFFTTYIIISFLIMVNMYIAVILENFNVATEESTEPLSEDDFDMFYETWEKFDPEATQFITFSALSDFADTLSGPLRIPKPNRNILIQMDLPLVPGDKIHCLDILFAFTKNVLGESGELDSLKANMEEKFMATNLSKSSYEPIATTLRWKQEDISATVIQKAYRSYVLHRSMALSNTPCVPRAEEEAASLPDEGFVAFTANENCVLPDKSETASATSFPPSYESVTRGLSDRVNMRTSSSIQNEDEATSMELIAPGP
Assay Protocol: Compound profiling on NaV1.8, human NaV1.8 cell line, SyncroPatch384PE automated patch clamp assay (Example 102, first set of compounds, Table 16)
Assay type: cell-based
Test Settings: inactivated state block (P2 measurement), human NaV1.8 HEK cells, Table 16 (first set of compounds), read-out: P2IC50
pIC50: −log10 of the molar value.
Value Type: pIC50

| Compound | Value Type | Readout Value |
| --- | --- | --- |
| NC(=O)c1cccc(NC(=O)c2cc(C(F)(F)F)cnc2Oc2ccc(C(F)F)nc2)c1 | pIC50 | 6.30 to 6.70 |
| Cc1c(C(F)(F)F)nnc(Oc2ccc(OC3CCC3)c(F)c2F)c1C(=O)Nc1cccc(S(C)(=N)=O)c1 (single isomer, unassigned) [Compound 1493] | pIC50 | ≥ 7.70 |
| CN=S(C)(=O)c1cccc(NC(=O)c2cc(C(F)(F)F)cnc2Oc2ccc(F)cc2C)c1 (stereo not drawn) | pIC50 | ≥ 7.70 |
| COc1ncc(-c2nnc(Oc3ccc(C#N)cc3OC)c(C(=O)Nc3cccc(S(C)(=N)=O)c3)c2C)s1 (stereo not drawn) | pIC50 | 6.70 to 7.40 |
| Cc1cc(F)ccc1Oc1nnc(C(F)(F)F)c(C)c1C(=O)Nc1cc(C(N)=O)cc(S(C)(=O)=O)c1 | pIC50 | 6.30 to 6.70 |
| COc1ccc(C#N)cc1Oc1ncc(C(F)(F)F)cc1C(=O)Nc1cccc(S(C)(=N)=O)c1 (stereo not drawn) | pIC50 | 6.30 to 6.70 |
| Cc1c(C(F)(F)F)nnc(Oc2ccc(OC(F)(F)F)c(F)c2F)c1C(=O)Nc1cccc(S(C)(=N)=O)c1 (single isomer, unassigned) | pIC50 | ≥ 7.70 |
| COc1c(Oc2ncc(C(F)(F)F)cc2C(=O)Nc2cccc(S(C)(=N)=O)c2)ccc(F)c1F (stereo not drawn) | pIC50 | ≥ 7.70 |
| COc1c(Oc2nnc(C(F)(F)F)c(C)c2C(=O)Nc2ccn3nnnc3c2)ccc(F)c1F | pIC50 | ≥ 7.70 |
| COc1ccc(-c2nnc(Oc3ccc(C#N)cc3OC)c(C(=O)Nc3cccc([S@](C)(=N)=O)c3)c2C)cn1 | pIC50 | 6.70 to 7.40 |
| COc1cc(C#N)ccc1Oc1nnc(-c2cncs2)c(C)c1C(=O)Nc1cccc(S(C)(=N)=O)c1 (stereo not drawn) | pIC50 | 6.30 to 6.70 |
| COc1nc(Br)ccc1Oc1ncc(C(F)(F)F)cc1C(=O)Nc1cccc(S(C)(=N)=O)c1 (stereo not drawn) | pIC50 | ≥ 7.70 |
| COc1cc(C#N)ccc1Oc1ncc(C(F)(F)F)cc1C(=O)Nc1ccc[n+]([O-])c1 | pIC50 | 6.70 to 7.40 |
| Cc1cc(F)ccc1Oc1ncc(Cl)c(C)c1C(=O)Nc1cccc(S(C)(=N)=O)c1 (stereo not drawn) | pIC50 | ≥ 7.70 |
| COc1cc(C#N)ccc1Oc1nnc(C(F)(F)F)c(C)c1C(=O)Nc1cccnc1 | pIC50 | 6.70 to 7.40 |
| CC(C)Oc1ccc(Oc2ncc(C(F)(F)F)cc2C(=O)Nc2cccc(C(N)=O)c2)c(F)c1 | pIC50 | 6.30 to 6.70 |
| Cc1cc(F)ccc1Oc1nnc(C(F)(F)F)c(N2CCCCC2)c1C(=O)Nc1cccc([S@@](C)(=N)=O)c1 | pIC50 | 6.30 to 6.70 |
| COc1cc(C#N)ccc1Oc1ncc(C(F)(F)F)cc1C(=O)Nc1cccc(S(C)(=N)=O)c1 (stereo not drawn) | pIC50 | ≥ 7.70 |

# credit: patent US20240336574A1
